# credit: the supplement of paper PMC3334620

Hi there, I'd appreciate the recorded PBM E-score for every entry that follows.
# TEST SYSTEM: Cad1 (UniProt P24813)
# Sequence: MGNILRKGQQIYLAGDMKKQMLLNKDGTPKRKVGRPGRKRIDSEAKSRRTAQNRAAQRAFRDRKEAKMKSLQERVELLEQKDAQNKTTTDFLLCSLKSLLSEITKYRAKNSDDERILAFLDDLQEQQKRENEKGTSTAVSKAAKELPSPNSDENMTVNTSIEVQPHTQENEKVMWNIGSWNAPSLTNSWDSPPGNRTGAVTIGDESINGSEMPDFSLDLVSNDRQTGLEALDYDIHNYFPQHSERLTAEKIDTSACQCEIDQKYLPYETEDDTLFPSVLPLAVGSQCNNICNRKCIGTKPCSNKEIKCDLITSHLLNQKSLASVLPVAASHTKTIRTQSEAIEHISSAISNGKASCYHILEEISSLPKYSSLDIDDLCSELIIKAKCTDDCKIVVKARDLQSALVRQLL
# EXPERIMENT: PBM E-score (8-mer binding enrichment) (E-score (-0.5 to 0.5)); higher = stronger / more preferred TF binding
# CONDITION CONTEXT: protein concentration: 100 nM; construct: GST-full length
Whole data set: some 33,000 sequences, median “E-score (-0.5 to 0.5)” near -0.0014, cut for the highest 2% near 0.25. The full list was thinned out, with the highest values kept by preference.

1. ACGCGCGG	0.136

Could you tell me PBM E-score for each of these sequences? They are listed below.
1. TACGCTCA
2. GATACACC
3. AACGCTCA
4. AATACACA
5. ACCAGGCA
6. AAGCGCTC
7. TAGCGCGA

[-0.0567, 0.257, -0.0578, 0.144, -0.169, 0.0197, 0.211]

Can you give me PBM E-score for all of these, one by one?
1. CCGCGCCG
2. CATACACC
3. CCGCGCGG

1. 0.174
2. 0.00325
3. 0.417

====

# TEST SYSTEM: Cad1 (UniProt P24813)
# Sequence: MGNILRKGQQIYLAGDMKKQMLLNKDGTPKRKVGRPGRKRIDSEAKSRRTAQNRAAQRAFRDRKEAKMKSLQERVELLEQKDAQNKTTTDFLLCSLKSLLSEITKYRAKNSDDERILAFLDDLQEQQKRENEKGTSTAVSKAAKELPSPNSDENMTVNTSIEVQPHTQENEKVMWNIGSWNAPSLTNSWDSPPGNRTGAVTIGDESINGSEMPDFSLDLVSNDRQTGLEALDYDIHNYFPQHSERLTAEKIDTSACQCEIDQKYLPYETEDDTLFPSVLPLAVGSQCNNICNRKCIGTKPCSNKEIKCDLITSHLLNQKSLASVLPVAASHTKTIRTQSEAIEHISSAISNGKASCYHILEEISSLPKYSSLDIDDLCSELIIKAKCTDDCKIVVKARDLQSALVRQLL
# EXPERIMENT: PBM E-score (8-mer binding enrichment) (E-score (-0.5 to 0.5)); higher = stronger / more preferred TF binding
# CONDITION CONTEXT: protein concentration: 100 nM; construct: GST-full length
Whole data set: some 33,000 sequences, median “E-score (-0.5 to 0.5)” near -0.0014, cut for the highest 2% near 0.25. Shown is part of a subset that was picked to be rich in the highest values.
PARAMETER: PBM E-score
Answers are plain numbers.

In the examples that follow, each entry is paired with its recorded PBM E-score.
1. AAGTCGAC	0.256
2. AATCGAAG	0.182
3. AAGTCGAA	-0.0588

I would be grateful if you could provide PBM E-score for each of the following entries.
1. AATCGATC
2. GTCAGCAC
3. ATCAGCAC
4. GCGTCGAA

1. 0.215
2. 0.261
3. 0.0147
4. 0.116

Count: 7. Required value per item: PBM E-score.
1. ATCAGCAA
2. AATCGATT
3. AATCGACT
4. CTGACAAA
5. ATGTCGAC
6. AATCGCGC
7. AATCGCGT

1: 0.122; 2: 0.198; 3: -0.039; 4: 0.444; 5: 0.276; 6: 0.327; 7: 0.107

Hi, could you look up PBM E-score for each item in my list?
1. AATCGACC
2. CTGACAAC
3. AATTTGGG
4. CTCAGCAA
5. ATGTCGAA
6. CATCGATG

1. -0.051
2. 0.0707
3. 0.0286
4. 0.106
5. -0.00122
6. 0.169

For every item below, please supply its PBM E-score.
1. AAGTCGAT
2. CTGACAAG

1: 0.0428; 2: 0.101
